Ref: patent US5753617A

Biological target: P-selectin (Homo sapiens)
Construct: P-selectin is isolated from human platelet lysates
Sequence (P16109 42-830): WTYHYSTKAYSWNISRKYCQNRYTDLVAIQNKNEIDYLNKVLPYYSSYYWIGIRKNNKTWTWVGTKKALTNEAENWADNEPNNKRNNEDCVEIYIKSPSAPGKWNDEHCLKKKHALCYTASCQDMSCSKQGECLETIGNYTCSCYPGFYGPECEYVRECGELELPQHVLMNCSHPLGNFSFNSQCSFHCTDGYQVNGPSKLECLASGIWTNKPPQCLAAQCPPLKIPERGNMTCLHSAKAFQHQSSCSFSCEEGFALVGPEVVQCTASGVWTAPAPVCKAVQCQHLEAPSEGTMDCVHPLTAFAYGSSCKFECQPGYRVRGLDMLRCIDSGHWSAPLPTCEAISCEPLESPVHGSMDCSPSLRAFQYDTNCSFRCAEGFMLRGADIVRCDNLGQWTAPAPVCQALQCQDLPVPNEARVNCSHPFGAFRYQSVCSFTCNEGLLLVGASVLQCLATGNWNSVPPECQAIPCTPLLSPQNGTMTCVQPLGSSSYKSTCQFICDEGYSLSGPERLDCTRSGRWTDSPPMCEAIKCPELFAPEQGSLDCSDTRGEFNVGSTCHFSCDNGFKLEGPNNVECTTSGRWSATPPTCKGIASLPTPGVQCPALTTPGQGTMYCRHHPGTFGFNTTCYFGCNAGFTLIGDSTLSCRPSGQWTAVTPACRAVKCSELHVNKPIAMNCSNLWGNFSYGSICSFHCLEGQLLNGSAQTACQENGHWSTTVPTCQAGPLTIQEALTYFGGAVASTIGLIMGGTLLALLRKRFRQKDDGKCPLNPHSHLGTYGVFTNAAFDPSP
Assay: Inhibition of human neutrophil adhesion to purified P-selectin immobilized on plastic wells
Conditions: inhibiting the binding of human neutrophils to P-selectin
From the text: Peptides can be screened for their ability to inhibit adhesion to cells, for example, neutrophil adhesion to purified P-selectin immobilized on plastic wells, using the assay described by Geng, et al., Nature 343, 757-760 (1990). Human neutrophils are isolated from heparinized whole blood by density gradient centrifugation on Mono-Poly resolving media, Flow Laboratories. […] Peak fractions with absorbance at 280 nm are pooled. […]
Where a SMILES comes first, the peptide text is derived from it. Bridges are numbered along the chain shown (N, C = ends). [ ]: non-standard residue; d: D form. NMeF = CN[C@@H](Cc1ccccc1)C(=O)O; dPen = CC(C)(S)[C@@H](N)C(=O)O
Entries annotated with measured pIC50
Just the number, please; pIC50 means minus log10 of the concentration in mol/L.

Guide cases for pIC50, answers given:
Inquiry: I have this compound here, CC[C@@H](C)[C@H]1NC(=O)CNC(=O)[C@H](NC(=O)[C@@H](CCCCN)NC(=O)[C@H](N)CCCNC(=N)N)CSSC[C@H](C(=O)N[C@H](Cc2c[nH]c3ccccc23)C(=O)N[C@@H](C(=O)N[C@H](Cc2c[nH]c3ccccc23)C(=O)N[C@@H](C(N)=O)C(C)C)[C@H](C)O)NC1=O [(52)] (H-[dR][dK][dC]G[dI][dC][dW][dT][dW][dV]-NH2; disulfide 3-6) , and I need its recorded pIC50.
Reply text: 4.99

Inquiry: Need pIC50 of CC(C)[C@@H](NC(=O)[C@@H](Cc1c[nH]c2ccccc12)NC(=O)[C@H](NC(=O)[C@@H](Cc1c[nH]c2ccccc12)NC(=O)[C@H]1CSSC[C@@H](NC(=O)[C@@H](CCCCN)NC(=O)[C@H](N)CCCNC(=N)N)C(=O)NCC(=O)N(C)[C@@H](Cc2ccccc2)C(=O)N1)[C@H](C)O)C(N)=O [(72)] (H-[dR][dK][dC]G[NMeF][dC][dW][dT][dW][dV]-NH2; disulfide 3-6) , thanks.
Reply text: 4.42

Inquiry: Quick check: pIC50 of CC(C)[C@@H](NC(=O)[C@@H](Cc1c[nH]c2ccccc12)NC(=O)[C@H](NC(=O)[C@@H](Cc1c[nH]c2ccccc12)NC(=O)[C@H]1CSSC[C@@H](NC(=O)[C@@H](CCCCN)NC(=O)[C@H](N)CCCNC(=N)N)C(=O)N[C@@H](C)C(=O)N[C@@H](Cc2ccccc2)C(=O)N1)[C@H](C)O)C(N)=O [(37)] (H-[dR][dK][dC]AF[dC][dW][dT][dW][dV]-NH2; disulfide 3-6) ?
Reply text: 3.69

Inquiry: Name the recorded pIC50 for CC(C)[C@@H](NC(=O)[C@H]1CCCN1C(=O)[C@H](NC(=O)[C@@H](Cc1c[nH]c2ccccc12)NC(=O)[C@H]1CSSC[C@@H](NC(=O)[C@@H](CCCCN)NC(=O)[C@H](N)CCCNC(=N)N)C(=O)NCC(=O)N[C@@H](Cc2ccccc2)C(=O)N1)[C@H](C)O)C(N)=O [(77)] (H-[dR][dK][dC]GF[dC][dW][dT][dP][dV]-NH2; disulfide 3-6) .
Reply text: 2.64

Inquiry: Fill in: pIC50 of CC[C@H](C)[C@@H]1NC(=O)[C@H](CCCCN)NC(=O)[C@@H](N)CCCCNC(=O)CC[C@@H](C(=O)N[C@@H](Cc2c[nH]c3ccccc23)C(=O)N[C@H](C(=O)N[C@@H](Cc2c[nH]c3ccccc23)C(=O)N[C@H](C(N)=O)C(C)C)[C@@H](C)O)NC(=O)CNC(=O)CNC1=O [(2)] (H-KKIGGEWTWV-NH2; lactam 1-6) is ___
Reply text: 4.16

Inquiry: Quick check: pIC50 of CC(C)[C@H](NC(=O)[C@H](Cc1c[nH]c2ccccc12)NC(=O)[C@@H](NC(=O)[C@H](Cc1c[nH]c2ccccc12)NC(=O)[C@@H]1NC(=O)CNC(=O)CNC(=O)[C@@H](NC(=O)[C@H](CCCCN)NC(=O)[C@@H](N)CCCNC(=N)N)CSSC1(C)C)[C@@H](C)O)C(N)=O [(10)] (H-RKCGG[dPen]WTWV-NH2; disulfide 3-6) ?
Reply text: 4.52

Next up:
Inquiry: # lookup: pIC50 of CC(C)[C@@H](NC(=O)[C@@H](Cc1c[nH]c2ccccc12)NC(=O)[C@H](NC(=O)[C@@H](Cc1c[nH]c2ccccc12)NC(=O)[C@H]1CSSC[C@@H](NC(=O)[C@@H](CCCCN)NC(=O)[C@H](N)CCCNC(=N)N)C(=O)NCC(=O)N[C@@H](CC(N)=O)C(=O)N1)[C@H](C)O)C(N)=O [(41)] (H-[dR][dK][dC]GN[dC][dW][dT][dW][dV]-NH2; disulfide 3-6)
Reply text: 4.58
